Assay: Equilibrium solubility at pH 6.8
Conditions: phosphate buffered saline, 37 °C, pH 6.8, aqueous buffer, thermodynamic from solid
Measure name: solubility thermodynamic at 24 h (µg/mL)
Write down the numeric answer in µg/mL and omit the unit.

Task item: State the recorded solubility thermodynamic at 24 h for this entry: COc1ccc2nccc(CCN3CCC(NCc4ccc(Br)cc4)CC3)c2n1 [Compound 14]
Reply: 72

Task item: Find the recorded solubility thermodynamic at 24 h belonging to COc1ccc2nccc(CCN3CCC(NC(=O)c4cn5cccc(C#N)c5n4)CC3)c2n1 [Compound 7] and report it.
Reply: 883

Task item: Query: solubility thermodynamic at 24 h; subject: COc1ccc2nccc(CCN3CCC(NCc4cnn(-c5ccc(F)cc5)c4)CC3)c2n1 [Compound 4]
Reply: 585

Task item: Requested read-out: solubility thermodynamic at 24 h. Entry: COc1ccc2nccc(CCN3CCC(NCc4ccc(OC(F)F)c(O)c4)CC3)c2n1 [Compound 20]
Reply: 103

Task item: So what does the record say about solubility thermodynamic at 24 h for COc1ccc2nccc(CCN3CCC(NCc4ccc(F)cc4)CC3)c2n1 [Compound 12] ?
Reply: 460

Task item: Form field: reported solubility thermodynamic at 24 h of COc1ccc2nccc(CCN3CCC(NCc4ccc(CO)cc4)CC3)c2n1 [Compound 16]
Reply: 3390

Task item: Requested field: solubility thermodynamic at 24 h. Item: COc1ccc2nccc(CCN3CCC(NCc4ccc(Cl)cc4)CC3)c2n1 [Compound 13]
Reply: 119

Task item: Name the reported solubility thermodynamic at 24 h value associated with the molecule COc1ccc2nccc(CCN3CCC(NCc4ccc(OC(F)F)c(OC)c4)CC3)c2n1 [Compound 19]
Reply: 79

Task item: Given COc1ccc(CNC2CCN(CCc3ccnc4ccc(OC)nc34)CC2)cn1 [Compound 22] , state its recorded solubility thermodynamic at 24 h.
Reply: 1460

Task item: What value of solubility thermodynamic at 24 h has been reported for the following molecule? COc1ccc2nccc(CCN3CCC(NCc4cnn(-c5ccccc5)c4)CC3)c2n1 [Compound 5]
Reply: 381

Task item: # get_value(readout='solubility thermodynamic at 24 h', item= COc1ccc2nccc(CCN3CCC(NCc4cnn(C(C)C)c4)CC3)c2n1 [Compound 9] )
Reply: 7550

---

Measure name: pIC50
Scale note: pIC50 = -log10(concentration in M).

Task item: Write down the reported pIC50 of COc1ccc2nccc(CCN3CCC(NCc4ccc(OC(F)F)c(OC)c4)CC3)c2n1 [Compound 19] , test system: E. coli DNA gyrase (Escherichia coli).
Sequence (P0AES4 whole entry): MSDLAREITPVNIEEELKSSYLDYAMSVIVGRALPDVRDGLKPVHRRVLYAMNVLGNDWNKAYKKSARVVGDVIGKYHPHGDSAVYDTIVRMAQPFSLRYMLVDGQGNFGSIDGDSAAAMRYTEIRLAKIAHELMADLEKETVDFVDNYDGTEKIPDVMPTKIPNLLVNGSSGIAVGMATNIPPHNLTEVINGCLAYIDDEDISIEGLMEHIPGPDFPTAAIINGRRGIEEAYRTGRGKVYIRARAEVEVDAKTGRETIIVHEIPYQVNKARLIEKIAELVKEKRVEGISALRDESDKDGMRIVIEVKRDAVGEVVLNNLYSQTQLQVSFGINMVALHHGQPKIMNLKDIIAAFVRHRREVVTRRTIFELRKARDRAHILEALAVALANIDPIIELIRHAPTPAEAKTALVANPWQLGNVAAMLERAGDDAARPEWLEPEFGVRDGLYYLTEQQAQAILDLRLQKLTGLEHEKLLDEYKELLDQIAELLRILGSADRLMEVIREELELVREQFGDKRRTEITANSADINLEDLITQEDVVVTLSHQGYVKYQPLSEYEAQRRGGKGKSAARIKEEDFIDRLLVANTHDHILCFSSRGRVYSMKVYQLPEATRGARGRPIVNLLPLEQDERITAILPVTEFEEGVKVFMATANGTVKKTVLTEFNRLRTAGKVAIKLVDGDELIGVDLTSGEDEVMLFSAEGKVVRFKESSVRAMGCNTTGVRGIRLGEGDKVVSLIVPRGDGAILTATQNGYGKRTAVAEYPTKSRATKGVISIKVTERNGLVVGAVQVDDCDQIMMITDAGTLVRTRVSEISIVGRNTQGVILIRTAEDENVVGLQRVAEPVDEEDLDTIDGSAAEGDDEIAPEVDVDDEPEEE
Reply: 5.41

Task item: Could you share what pIC50 was measured for COc1ccc2nccc(CCN3CCC(NCc4cnn(C(C)C)c4)CC3)c2n1 [Compound 9] , tested on E. coli DNA gyrase (Escherichia coli)?
Reply: 5.53

Task item: GET /values?readout=pIC50&system=E. coli DNA gyrase (Escherichia coli)&item= COc1ccc2nccc(CCN3CCC(NCc4ccccc4)CC3)c2n1 [Compound 11]
Reply: 4.39

Task item: Under E. coli DNA gyrase (Escherichia coli): pIC50 value of COc1ccc2nccc(CCN3CCC(NCc4cnn(-c5ccccc5)n4)CC3)c2n1 [Compound 8] ?
Reply: 5.11

Task item: Give pIC50 (E. coli DNA gyrase (Escherichia coli)) of the following compound: COc1ccc2nccc(CCN3CCC(NCc4cnn(-c5ccccc5)c4)CC3)c2n1 [Compound 5]
Reply: 5.52

Task item: Return pIC50 measured with E. coli DNA gyrase (Escherichia coli) given this compound: COc1ccc2nccc(CCN3CCC(NCc4ccc(C(F)(F)F)nc4)CC3)c2n1 [Compound 21]
Reply: 5.16

Task item: Which pIC50 is reported with E. coli DNA gyrase (Escherichia coli) for this entry: COc1ccc(CNC2CCN(CCc3ccnc4ccc(OC)nc34)CC2)cn1 [Compound 22] ?
Reply: 5.14

Task item: Lab request: please report pIC50 under test system E. coli DNA gyrase (Escherichia coli) for C=CCn1cc(CNC2CCN(CCc3ccnc4ccc(OC)nc34)CC2)cn1 [Compound 10]
Reply: 4.78

Task item: # returns recorded pIC50 (system: E. coli DNA gyrase (Escherichia coli)) for COc1ccc2nccc(CCN3CCC(NCc4ccc(CO)cc4)CC3)c2n1 [Compound 16]
Reply: 4.25

Task item: Under E. coli DNA gyrase (Escherichia coli): pIC50 value of COc1ccc2nccc(CCN3CCC(NCc4ccc(N(C)C)cc4)CC3)c2n1 [Compound 18] ?
Reply: 4.92

Task item: Please state recorded pIC50 (tested on E. coli DNA gyrase (Escherichia coli)) of COc1ccc2nccc(CCN3CCC(NCc4ccc(OC(F)F)c(O)c4)CC3)c2n1 [Compound 20]
Reply: 5.36

Task item: Hello, I am looking for reported pIC50 with E. coli DNA gyrase (Escherichia coli) for COc1ccc2nccc(CCN3CCC(NCc4ccc(F)cc4)CC3)c2n1 [Compound 12] . Could you help?
Reply: 4.77

Task item: // fetch E. coli DNA gyrase (Escherichia coli) pIC50 for COc1ccc2nccc(CCN3CCC(NCc4cnn(-c5ccc(F)cc5)c4)CC3)c2n1 [Compound 4]
Reply: 4.88

---

Test system: C. jejuni RDK 135 (ATCC 33560)
Assay: MIC broth microdilution, C. jejuni
Format: cell-based
Details: Campylobacter jejuni, ATCC33560; read-out: MIC C. jejuni RDK 135 (ATCC 33560)
Measure name: MIC (µg/mL)
# value in µg/mL; strip the unit string

Task item: Item: COc1ccc2nccc(CCN3CCC(NCc4ccc(CO)cc4)CC3)c2n1 Test system: C. jejuni RDK 135 (ATCC 33560) Read-out: MIC Value: ?
Reply: 32

Task item: Request body: readout MIC, system C. jejuni RDK 135 (ATCC 33560), query COc1ccc2nccc(CCN3CCC(NCc4ccccc4)CC3)c2n1 . Return the value.
Reply: 32

Task item: Form field - read-out: MIC; system: C. jejuni RDK 135 (ATCC 33560); submitted item: C=CCn1cc(CNC2CCN(CCc3ccnc4ccc(OC)nc34)CC2)cn1
Reply: 8

Task item: Can you look up MIC on C. jejuni RDK 135 (ATCC 33560) for COc1ccc2nccc(CCN3CCC(NCc4ccc(C(N)=O)cc4)CC3)c2n1 ?
Reply: 128

Task item: Field: MIC (C. jejuni RDK 135 (ATCC 33560)). Entry: COc1ccc2nccc(CCN3CCC(NCc4cnn(-c5ccc(F)cc5)c4)CC3)c2n1
Reply: 128

---

Target: S. aureus DNA gyrase (Staphylococcus aureus, UniProt P20831)
Construct: purchased Inspiralis (Norwich, UK)
Sequence (P20831 whole entry): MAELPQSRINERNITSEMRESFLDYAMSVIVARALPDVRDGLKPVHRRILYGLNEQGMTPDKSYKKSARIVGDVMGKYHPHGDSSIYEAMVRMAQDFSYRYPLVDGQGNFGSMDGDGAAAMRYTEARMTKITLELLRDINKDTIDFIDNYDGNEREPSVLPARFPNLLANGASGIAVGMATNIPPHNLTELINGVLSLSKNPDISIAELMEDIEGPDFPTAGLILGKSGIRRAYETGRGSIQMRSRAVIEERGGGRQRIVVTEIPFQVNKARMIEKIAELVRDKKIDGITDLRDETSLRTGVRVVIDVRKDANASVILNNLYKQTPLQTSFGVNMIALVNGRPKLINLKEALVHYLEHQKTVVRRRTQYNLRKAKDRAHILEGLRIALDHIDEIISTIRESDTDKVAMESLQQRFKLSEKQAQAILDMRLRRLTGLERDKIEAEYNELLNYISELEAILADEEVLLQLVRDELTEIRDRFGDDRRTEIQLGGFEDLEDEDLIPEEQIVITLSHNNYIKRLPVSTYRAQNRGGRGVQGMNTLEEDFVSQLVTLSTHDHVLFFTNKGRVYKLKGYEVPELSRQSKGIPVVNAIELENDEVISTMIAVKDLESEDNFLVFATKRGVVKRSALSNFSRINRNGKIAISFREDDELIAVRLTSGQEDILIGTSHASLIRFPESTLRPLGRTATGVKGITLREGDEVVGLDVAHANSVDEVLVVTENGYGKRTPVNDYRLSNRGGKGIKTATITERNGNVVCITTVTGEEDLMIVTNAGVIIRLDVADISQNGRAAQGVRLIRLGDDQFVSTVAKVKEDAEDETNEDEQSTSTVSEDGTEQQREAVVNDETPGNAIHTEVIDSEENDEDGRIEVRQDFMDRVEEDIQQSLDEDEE
Sequence (P0A0K8 whole entry partner): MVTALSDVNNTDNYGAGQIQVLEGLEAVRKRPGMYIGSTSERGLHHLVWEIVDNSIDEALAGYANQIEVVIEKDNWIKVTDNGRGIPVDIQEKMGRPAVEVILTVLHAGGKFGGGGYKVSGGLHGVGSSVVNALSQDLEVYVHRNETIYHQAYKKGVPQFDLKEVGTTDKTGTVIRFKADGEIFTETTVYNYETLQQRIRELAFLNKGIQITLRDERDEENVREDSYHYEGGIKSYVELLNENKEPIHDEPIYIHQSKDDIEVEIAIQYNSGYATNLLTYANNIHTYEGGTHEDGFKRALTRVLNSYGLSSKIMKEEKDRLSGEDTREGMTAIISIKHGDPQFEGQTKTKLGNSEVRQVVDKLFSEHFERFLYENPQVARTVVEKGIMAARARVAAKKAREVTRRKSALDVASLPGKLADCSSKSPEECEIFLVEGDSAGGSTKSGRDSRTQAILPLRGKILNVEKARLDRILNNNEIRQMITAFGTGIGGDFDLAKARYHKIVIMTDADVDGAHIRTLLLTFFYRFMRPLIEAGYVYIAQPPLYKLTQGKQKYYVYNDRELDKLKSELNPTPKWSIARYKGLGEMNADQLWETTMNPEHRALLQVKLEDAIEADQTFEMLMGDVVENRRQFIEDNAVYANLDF
Assay: biochemical
Assay type: biochemical
Conditions: LE = (1.37/HA) × pIC50
Measure name: LE DNA Gyrase S. aureus
// no unit string in output, number only

Task item: I am curious: what LE DNA Gyrase S. aureus value has been reported for COc1ccc2nccc(CCN3CCC(NCc4cnn(-c5ccccc5)n4)CC3)c2n1 ?
Reply: 0.27

Task item: If you can, please state the reported LE DNA Gyrase S. aureus value of COc1ccc2nccc(CCN3CCC(NCc4ccc(F)cc4)CC3)c2n1 .
Reply: 0.30

Task item: Would you mind telling me what LE DNA Gyrase S. aureus value was observed for C=CCn1cc(CNC2CCN(CCc3ccnc4ccc(OC)nc34)CC2)cn1 ?
Reply: 0.27

Task item: Given COc1ccc2nccc(CCN3CCC(NCc4cnn(C(C)C)c4)CC3)c2n1 , state its recorded LE DNA Gyrase S. aureus.
Reply: 0.31

Task item: Fill blank: measured LE DNA Gyrase S. aureus of the molecule COc1ccc2nccc(CCN3CCC(NCc4ccc(OC(F)F)c(O)c4)CC3)c2n1 is ____.
Reply: 0.27

Task item: Need LE DNA Gyrase S. aureus, item COc1ccc2nccc(CCN3CCC(NCc4ccc(C(N)=O)cc4)CC3)c2n1
Reply: 0.25

Task item: Entry under review: COc1ccc2nccc(CCN3CCC(NCc4ccc(CO)cc4)CC3)c2n1 . Reported LE DNA Gyrase S. aureus?
Reply: 0.24

Task item: Recorded LE DNA Gyrase S. aureus of COc1ccc(CNC2CCN(CCc3ccnc4ccc(OC)nc34)CC2)cn1 , please.
Reply: 0.30

Task item: Name the reported LE DNA Gyrase S. aureus value associated with the molecule COc1ccc2nccc(CCN3CCC(NCc4ccc(OC(F)F)c(OC)c4)CC3)c2n1
Reply: 0.26

Task item: # query: LE DNA Gyrase S. aureus of entry COc1ccc2nccc(CCN3CCC(NCc4cnn(-c5ccc(F)cc5)c4)CC3)c2n1
Reply: 0.25

Task item: // LE DNA Gyrase S. aureus lookup, key: COc1ccc2nccc(CCN3CCC(NCc4ccc(C(F)(F)F)nc4)CC3)c2n1
Reply: 0.29

Task item: Param item = COc1ccc2nccc(CCN3CCC(NCc4nc5ccccc5n4C)CC3)c2n1 ; retrieve measured LE DNA Gyrase S. aureus.
Reply: 0.25

Task item: Requested read-out: LE DNA Gyrase S. aureus. Entry: COc1ccc2nccc(CCN3CCC(NCc4ccc(N(C)C)cc4)CC3)c2n1
Reply: 0.32

Task item: LE DNA Gyrase S. aureus for COc1ccc2nccc(CCN3CCC(NCc4ccccc4)CC3)c2n1 ?
Reply: 0.29

Task item: Record request: LE DNA Gyrase S. aureus value, item COc1ccc2nccc(CCN3CCC(NCc4cnn(-c5ccccc5)c4)CC3)c2n1
Reply: 0.27
